- protocol-summary: self-splicing fitness, log relative to wild type (ln ratio); higher = more splicing; Tetrahymena group I intron in knt gene, E. coli kanamycin selection, DiMSum; sequences stand for … in CUCUCU…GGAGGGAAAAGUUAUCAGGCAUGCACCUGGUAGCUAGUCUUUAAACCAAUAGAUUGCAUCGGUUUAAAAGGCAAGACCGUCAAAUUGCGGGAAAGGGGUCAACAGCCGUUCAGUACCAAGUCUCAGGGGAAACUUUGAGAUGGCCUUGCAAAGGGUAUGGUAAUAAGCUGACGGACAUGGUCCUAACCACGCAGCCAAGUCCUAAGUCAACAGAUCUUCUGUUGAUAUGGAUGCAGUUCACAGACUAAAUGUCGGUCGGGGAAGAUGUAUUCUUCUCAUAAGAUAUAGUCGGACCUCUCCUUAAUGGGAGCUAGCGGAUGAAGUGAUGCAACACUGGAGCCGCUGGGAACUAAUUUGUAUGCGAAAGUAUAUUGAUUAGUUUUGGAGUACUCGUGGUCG;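 also: selection with 25 µg/mL kanamycin versus none on LB agar overnight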
- experimental-setup: 30 °C
Each record here notes measured self-splicing fitness (ln).
The response must contain the number and no unit.

Study these solved cases before continuing.
[[record]]
seq_string = "UAGCAGCAAUAUUACGGUCG"
val = 0.0447

[[record]]
seq_string = "ACUGAGCAAUAUUACGUGUC"
val = -2.31

[[record]]
seq_string = "CCGCAGCAAUAUUACGUGAC"
val = -4.7

[[record]]
seq_string = "CGGCAGCAAUAUUACGUAAU"
val = -3.38

[[record]]
seq_string = "CUGAAGCAAUAUUACGGCAU"
val = -2.91


`AUCCAGCAAUAUUACGUUGU` yielded self-splicing fitness (ln) of -3.92

Looking up `GUCCAGCAAUAUUACGAAAA` , I see its self-splicing fitness (ln) listed as -1.1

// self-splicing fitness (ln) value for `AGGUAGCAAUAUUACGGAUG` : -3.7

Looking up `CUGUAGCAAUAUUACGCCGC` , I see its self-splicing fitness (ln) listed as -2.54

Noted for `AAGCAGCAAUAUUACGCGGG` : its self-splicing fitness (ln) reads -1.43

###

- protocol-summary: self-splicing fitness, log relative to wild type (ln ratio); higher = more splicing; Tetrahymena group I intron in knt gene, E. coli kanamycin selection, DiMSum; sequences stand for … in CUCUCU…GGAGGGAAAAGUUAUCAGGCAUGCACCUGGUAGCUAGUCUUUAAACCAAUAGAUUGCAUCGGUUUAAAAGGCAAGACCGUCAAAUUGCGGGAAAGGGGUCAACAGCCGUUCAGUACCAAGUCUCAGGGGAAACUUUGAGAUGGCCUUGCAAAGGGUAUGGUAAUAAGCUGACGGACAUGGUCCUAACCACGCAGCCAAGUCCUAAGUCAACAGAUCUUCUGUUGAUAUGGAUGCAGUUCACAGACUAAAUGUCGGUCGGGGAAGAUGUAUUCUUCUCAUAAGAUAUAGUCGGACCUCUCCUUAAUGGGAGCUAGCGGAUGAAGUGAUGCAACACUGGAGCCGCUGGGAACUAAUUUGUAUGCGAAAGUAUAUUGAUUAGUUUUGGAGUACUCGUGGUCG
- experimental-setup: 30 °C
Rule: self-splicing fitness (ln) under -2 gives class 0, otherwise class 1.

[[record]]
seq_string = "AACCAGCAAUAUUACGACUG"
class_label = "class 0"

[[record]]
seq_string = "ACCGAGCAAUAUUACGUGCG"
class_label = "class 1"

[[record]]
seq_string = "GUGGAGCAAUAUUACGGCGC"
class_label = "class 1"


Please turn your attention to the following entry.
Lookup: Check this sequence for self-splicing fitness (ln) at or above -2: `UGUGAGCAAUAUUACGCCAG`
Found: class 0
